Data provenance: ChEMBL document CHEMBL1156847

# test system: CDGSH iron-sulfur domain-containing protein 1 (Rattus norvegicus, UniProt B0K020)
# Sequence (B0K020 whole entry): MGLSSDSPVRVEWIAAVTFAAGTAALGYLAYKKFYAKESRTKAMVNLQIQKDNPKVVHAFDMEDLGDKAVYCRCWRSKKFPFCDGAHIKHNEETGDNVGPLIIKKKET
measurement name: IC50 (nM)
Answers are plain numbers, in nM.

molecule: CC(C)(C)c1cc(CC2SC(=O)N=C2O)cc(C(C)(C)C)c1O (configuration not stated)
IC50, nM: 900

Consider the additional molecule presented here.
The reported IC50 value, CDGSH iron-sulfur domain-containing protein 1 (Rattus norvegicus, UniProt B0K020), for CN(CCOc1ccc(CC2SC(=O)NC2=O)cc1)c1ccccn1 (configuration not stated) [ROSIGLITAZONE] reads 1100
